# systemTested: Sodium channel protein type 1 subunit alpha (Homo sapiens)
# methodSummary: Activation of human Nav1.1 expressed in HEK293 cells assessed as ratio of compound activation AUC to baseline activation AUC at 1.11 uM at -120 mV holding potential by Qpatch assay
# Type: cell-based
Positions of bridges follow the written chain, without caps; N, C: chain ends. Non-standard residues stand in square brackets, D forms with d. Residues, ends and D or L forms follow the SMILES beside them. Phe(4-Cl) = N[C@@H](Cc1ccc(Cl)cc1)C(=O)O
readoutKind: Ratio AUC
Answer field: number only, no words.

Look over these answered cases.
INSERT INTO assay_data (molecule, readoutkind, reading) VALUES
  ('CC[C@H](C)[C@H](NC(=O)[C@H](CC(=O)O)NC(=O)[C@@H](NC(=O)[C@@H](N)CCCNC(=N)N)[C@@H](C)CC)C(=O)NCC(=O)N[C@@H](CC(C)C)C(=O)N[C@@H](Cc1ccccc1)C(=O)N[C@@H](CCCCN)C(=O)N[C@@H](CCC(N)=O)C(=O)N[C@@H](CC(C)C)C(=O)N[C@@H](CO)C(=O)N[C@@H](CCCNC(=N)N)C(=O)N[C@@H](CC(C)C)C(N)=O (H-RIDIGLFKQLSRL-NH2)', 'Ratio AUC', 1.1),
  ('CC[C@H](C)[C@H](NC(=O)[C@H](CCCNC(=N)N)NC(=O)[C@@H](NC(=O)[C@@H](N)CCCNC(=N)N)[C@@H](C)CC)C(=O)NCC(=O)N[C@@H](CC(C)C)C(=O)N[C@@H](Cc1ccccc1)C(=O)N[C@@H](CC(=O)O)C(=O)N[C@@H](CCC(N)=O)C(=O)N[C@@H](CC(C)C)C(=O)N[C@@H](Cc1ccc(Cl)cc1)C(=O)N[C@@H](CCCNC(=N)N)C(=O)N[C@@H](CC(C)C)C(N)=O (H-RIRIGLFDQL[Phe(4-Cl)]RL-NH2)', 'Ratio AUC', 1.8),
  ('CC[C@H](C)[C@H](NC(=O)[C@H](CCCNC(=N)N)NC(=O)[C@@H](NC(=O)[C@@H](N)CCCNC(=N)N)[C@@H](C)CC)C(=O)NCC(=O)N[C@@H](CC(C)C)C(=O)N[C@@H](Cc1ccccc1)C(=O)N[C@@H](CC(=O)O)C(=O)N[C@@H](CCC(N)=O)C(=O)N[C@@H](CC(C)C)C(=O)N[C@@H](CO)C(=O)N[C@@H](CCCNC(=N)N)C(=O)N[C@@H](CC(C)C)C(N)=O (H-RIRIGLFDQLSRL-NH2)', 'Ratio AUC', 1.3),
  ('CC[C@H](C)[C@H](NC(=O)[C@H](CCCCN)NC(=O)[C@@H](NC(=O)[C@@H](N)CC(=O)O)[C@@H](C)CC)C(=O)NCC(=O)N[C@@H](CC(C)C)C(=O)N[C@@H](Cc1ccccc1)C(=O)N[C@@H](CCCNC(=N)N)C(=O)N[C@@H](CCC(N)=O)C(=O)N[C@@H](CC(C)C)C(=O)N[C@@H](CO)C(=O)N[C@@H](CCCNC(=N)N)C(=O)N[C@@H](CC(C)C)C(N)=O (H-DIKIGLFRQLSRL-NH2)', 'Ratio AUC', 1.1),
  ('CC[C@H](C)[C@H](NC(=O)[C@H](CCCNC(=N)N)NC(=O)[C@@H](NC(=O)[C@@H](N)CCCNC(=N)N)[C@@H](C)CC)C(=O)NCC(=O)N[C@@H](CC(C)C)C(=O)N[C@@H](Cc1ccccc1)C(=O)N[C@@H](CC(=O)O)C(=O)N[C@@H](CCC(N)=O)C(=O)N[C@@H](CC(C)C)C(=O)N[C@@H](Cc1ccc(O)cc1)C(=O)N[C@@H](CCCNC(=N)N)C(=O)N[C@@H](CC(C)C)C(N)=O (H-RIRIGLFDQLYRL-NH2)', 'Ratio AUC', 1.5),
  ('CC[C@H](C)[C@H](NC(=O)[C@H](CCCCN)NC(=O)[C@@H](NC(=O)[C@@H](N)CCCNC(=N)N)[C@@H](C)CC)C(=O)N[C@H](C)C(=O)N[C@@H](CC(C)C)C(=O)N[C@@H](Cc1ccccc1)C(=O)N[C@@H](CC(=O)O)C(=O)N[C@@H](CCC(N)=O)C(=O)N[C@@H](CC(C)C)C(=O)N[C@@H](CO)C(=O)N[C@@H](CCCNC(=N)N)C(=O)N[C@@H](CC(C)C)C(N)=O', 'Ratio AUC', 1);

Shift focus to the following entry.
Query: Specify reported Ratio AUC for the molecule shown: CC[C@H](C)[C@@H]1NC(=O)[C@H](CCCCN)NC(=O)[C@H]([C@@H](C)CC)NC(=O)[C@@H](N)CSSC[C@@H](C(=O)N[C@@H](CCC(N)=O)C(=O)N[C@@H](CC(C)C)C(=O)N[C@@H](CO)C(=O)N[C@@H](CCCNC(=N)N)C(=O)N[C@@H](CC(C)C)C(N)=O)NC(=O)[C@H](Cc2ccccc2)NC(=O)[C@H](CC(C)C)NC(=O)CNC1=O (H-CIKIGLFCQLSRL-NH2; disulfide 1-8)
Result: 1
